- Test system: Escherichia coli (ATCC 25922)
- Assay comment: Agar plate diffusion, inhibition zone
- Type: cell-based
- Particulars: ATCC25922, 24 h, read-out: Mean Diameter of Inhibition Zone (IZ)
Result type: zone of inhibition at 500 µg/mL (mm)
The reply should be a number in mm, with the unit left off.

The cases that follow already have their zone of inhibition at 500 µg/mL on record.
{"Molecule": "Cc1cccc(NC(=O)CSc2nc3ccccc3c(=O)n2-c2ccc(S(N)(=O)=O)cc2)c1 [Compound 7]", "Numeric readout": 12}
{"Molecule": "CN[C@H](CC(C)C)C(=O)N[C@H]1C(=O)N[C@@H](CC(N)=O)C(=O)N[C@H]2C(=O)N[C@H]3C(=O)N[C@H](C(=O)N[C@H](C(=O)O)c4cc(O)cc(O)c4-c4cc3ccc4O)[C@H](O)c3ccc(c(Cl)c3)Oc3cc2cc(c3O[C@@H]2O[C@H](CO)[C@@H](O)[C@H](O)[C@H]2O[C@H]2C[C@](C)(N)[C@H](O)[C@H](C)O2)Oc2ccc(cc2Cl)[C@H]1O [Vancomycin, reference compound]", "Numeric readout": 24}
{"Molecule": "NS(=O)(=O)c1ccc(-n2c(SCC(=O)Nc3ccccc3)nc3ccccc3c2=O)cc1 [Compound 5]", "Numeric readout": 14}
{"Molecule": "Cc1ccccc1NC(=O)CSc1nc2ccccc2c(=O)n1-c1ccc(S(N)(=O)=O)cc1 [Compound 6]", "Numeric readout": 15}

Ask | // query zone of inhibition at 500 µg/mL value for entry CN(C)[C@@H]1C(O)=C(C(N)=O)C(=O)[C@@]2(O)C(O)=C3C(=O)c4c(O)cccc4[C@@](C)(O)[C@H]3C[C@@H]12 [Tetracycline, reference compound]
Reply | 23

Ask | Fill in the blank: the reported zone of inhibition at 500 µg/mL of O=C(O)c1cn(C2CC2)c2cc(N3CCNCC3)c(F)cc2c1=O [Ciprofloxacin, reference compound] is ____.
Reply | 27

###

- Test system: Bacillus subtilis (ATCC 6633)
- Assay comment: Agar plate diffusion, inhibition zone
- Type: cell-based
- Particulars: ATCC6633, 24 h, read-out: Mean Diameter of Inhibition Zone (IZ)
Result type: zone of inhibition at 500 µg/mL (mm)
Respond numerically; units are mm and should not be typed.

Consider the reported zone of inhibition at 500 µg/mL for these compounds:
{"Compound": "CN(C)[C@@H]1C(O)=C(C(N)=O)C(=O)[C@@]2(O)C(O)=C3C(=O)c4c(O)cccc4[C@@](C)(O)[C@H]3C[C@@H]12 [Tetracycline, reference compound]", "zone of inhibition at 500 µg/mL, mm": 25}
{"Compound": "CN[C@H](CC(C)C)C(=O)N[C@H]1C(=O)N[C@@H](CC(N)=O)C(=O)N[C@H]2C(=O)N[C@H]3C(=O)N[C@H](C(=O)N[C@H](C(=O)O)c4cc(O)cc(O)c4-c4cc3ccc4O)[C@H](O)c3ccc(c(Cl)c3)Oc3cc2cc(c3O[C@@H]2O[C@H](CO)[C@@H](O)[C@H](O)[C@H]2O[C@H]2C[C@](C)(N)[C@H](O)[C@H](C)O2)Oc2ccc(cc2Cl)[C@H]1O [Vancomycin, reference compound]", "zone of inhibition at 500 µg/mL, mm": 21}
{"Compound": "Cc1cccc(NC(=O)CSc2nc3ccccc3c(=O)n2-c2ccc(S(N)(=O)=O)cc2)c1", "zone of inhibition at 500 µg/mL, mm": 20}
{"Compound": "Cc1ccc(NC(=O)CSc2nc3ccccc3c(=O)n2-c2ccc(S(N)(=O)=O)cc2)cc1", "zone of inhibition at 500 µg/mL, mm": 26}
{"Compound": "Cc1ccccc1NC(=O)CSc1nc2ccccc2c(=O)n1-c1ccc(S(N)(=O)=O)cc1", "zone of inhibition at 500 µg/mL, mm": 16}
{"Compound": "O=C(O)c1cn(C2CC2)c2cc(N3CCNCC3)c(F)cc2c1=O [Ciprofloxacin, reference compound]", "zone of inhibition at 500 µg/mL, mm": 29}

Ask | Consider the compound shown here: NS(=O)(=O)c1ccc(-n2c(SCC(=O)Nc3ccccc3)nc3ccccc3c2=O)cc1 What is its recorded zone of inhibition at 500 µg/mL?
Reply | 25

###

- Test system: Staphylococcus aureus (ATCC 29213)
- Assay comment: Paper disk diffusion MIC
- Type: cell-based
- Particulars: ATCC29213, 24 h, read-out: Minimal Inhibitory Concentration (MIC)
Assign labels as follows, please: t for MIC below 2 µg/mL; f for MIC equal to or exceeding 2 µg/mL.

Some entries whose results are on file:
{"Molecule": "NS(=O)(=O)c1ccc(-n2c(SCC(=O)Nc3ccccc3)nc3ccccc3c2=O)cc1", "Tested target": "Staphylococcus aureus (ATCC 29213)", "Label": "t"}
{"Molecule": "CN(C)[C@@H]1C(O)=C(C(N)=O)C(=O)[C@@]2(O)C(O)=C3C(=O)c4c(O)cccc4[C@@](C)(O)[C@H]3C[C@@H]12 [Tetracycline, reference compound]", "Tested target": "Staphylococcus aureus (ATCC 29213)", "Label": "f"}
{"Molecule": "Cc1ccccc1NC(=O)CSc1nc2ccccc2c(=O)n1-c1ccc(S(N)(=O)=O)cc1", "Tested target": "Staphylococcus aureus (ATCC 29213)", "Label": "f"}

Ask | Is 2 µg/mL strictly greater than the molecule's reported MIC? molecule: CN[C@H](CC(C)C)C(=O)N[C@H]1C(=O)N[C@@H](CC(N)=O)C(=O)N[C@H]2C(=O)N[C@H]3C(=O)N[C@H](C(=O)N[C@H](C(=O)O)c4cc(O)cc(O)c4-c4cc3ccc4O)[C@H](O)c3ccc(c(Cl)c3)Oc3cc2cc(c3O[C@@H]2O[C@H](CO)[C@@H](O)[C@H](O)[C@H]2O[C@H]2C[C@](C)(N)[C@H](O)[C@H](C)O2)Oc2ccc(cc2Cl)[C@H]1O [Vancomycin, reference compound]
Reply | t

Ask | Hello, I'm reviewing records and need to know if MIC of Cc1cccc(NC(=O)CSc2nc3ccccc3c(=O)n2-c2ccc(S(N)(=O)=O)cc2)c1 is below 2 µg/mL. Could you check?
Reply | f

Ask | Take the molecule O=C(O)c1cn(C2CC2)c2cc(N3CCNCC3)c(F)cc2c1=O [Ciprofloxacin, reference compound] and say whether its MIC is less than 2 µg/mL.
Reply | t

Ask | Field: below-cutoff. Rule: recorded MIC strictly less than 2 µg/mL. Subject: Cc1ccc(NC(=O)CSc2nc3ccccc3c(=O)n2-c2ccc(S(N)(=O)=O)cc2)cc1
Reply | f

###

- Test system: Escherichia coli (ATCC 25922)
- Assay comment: Paper disk diffusion MIC
- Type: cell-based
- Particulars: ATCC25922, 24 h, read-out: Minimal Inhibitory Concentration (MIC)
Result type: MIC

Ask | Requested read-out: MIC. Entry: Cc1cccc(NC(=O)CSc2nc3ccccc3c(=O)n2-c2ccc(S(N)(=O)=O)cc2)c1 [Compound 7]
Reply | 20 µg/mL

###

- System: Bacillus subtilis (ATCC 6633)
- Assay comment: Paper disk diffusion MIC
- Type: cell-based
- Particulars: ATCC6633, 24 h, read-out: Minimal Inhibitory Concentration (MIC)
Measured MIC accompanies every entry in the list below.
Only the number, expressed in µg/mL, is required.

{"Molecule": "NS(=O)(=O)c1ccc(-n2c(SCC(=O)Nc3ccccc3)nc3ccccc3c2=O)cc1", "MIC (µg/mL)": 2.5}
{"Molecule": "CN(C)[C@@H]1C(O)=C(C(N)=O)C(=O)[C@@]2(O)C(O)=C3C(=O)c4c(O)cccc4[C@@](C)(O)[C@H]3C[C@@H]12 [Tetracycline, reference compound]", "MIC (µg/mL)": 31.2}
{"Molecule": "O=C(O)c1cn(C2CC2)c2cc(N3CCNCC3)c(F)cc2c1=O [Ciprofloxacin, reference compound]", "MIC (µg/mL)": 0.8}
{"Molecule": "Cc1ccccc1NC(=O)CSc1nc2ccccc2c(=O)n1-c1ccc(S(N)(=O)=O)cc1", "MIC (µg/mL)": 15.6}

API: the following record is the query input.
Ask | Tell me the measured MIC of Cc1ccc(NC(=O)CSc2nc3ccccc3c(=O)n2-c2ccc(S(N)(=O)=O)cc2)cc1 , please.
Reply | 6.31
